Recorded values, source ChEMBL document CHEMBL2311262.

test: Half life in rat at 10 mg/kg, po; format: ADME, organism-based; design: dose 10 mg/kg, route oral; details: in vivo
measure.name: half-life (min)
Your answer should be a plain number; it is taken to be in min.

q: Please report the recorded half-life for CS(=O)(=O)CC[C@@H]1OCC[C@@]2(S(=O)(=O)c3ccc(C(F)(F)F)cc3)c3c(F)ccc(F)c3OC[C@@H]12 .
a: 216

----------
experiment: Oral bioavailability in dog at 10 mg/kg; format: ADME, organism-based, Canis lupus familiaris; settings: in vivo
measure.name: bioavailability (%)
Your answer should be a plain number; it is taken to be in %.

q: Please report the recorded bioavailability for CS(=O)(=O)CC[C@@H]1OCC[C@@]2(S(=O)(=O)c3ccc(C(F)(F)F)cc3)c3c(F)ccc(F)c3OC[C@@H]12 .
a: 100

----------
target: Gamma-secretase; assay: Inhibition of gamma secretase-mediated amyloid beta42 production in HEK293 cells transfected with human APPSOW and APPLON after 5 hrs by sandwich immunoassay; format: cell-based
measure.name: pIC50
Recall that pIC50 is obtained by taking minus log10 of the concentration measured in molar.

q: Please report the recorded pIC50 for O=S(=O)(CC[C@@H]1OCC[C@@]2(S(=O)(=O)c3ccc(Cl)cc3)c3c(F)ccc(F)c3OC[C@@H]12)c1cnn[nH]1 .
a: 8.33

q: Please report the recorded pIC50 for CCS(=O)(=O)CC[C@@H]1OCC[C@@]2(S(=O)(=O)c3ccc(Cl)cc3)c3c(F)ccc(F)c3OC[C@@H]12 .
a: 8.70

q: Please report the recorded pIC50 for CS(=O)(=O)CC[C@@H]1OCC[C@@]2(S(=O)(=O)c3ccc(Br)cc3)c3c(F)ccc(F)c3OC[C@@H]12 .
a: 9.22

q: Please report the recorded pIC50 for CS(=O)(=O)CC[C@@H]1OCC[C@@]2(S(=O)(=O)c3ccc(C#N)cc3)c3c(F)ccc(F)c3OC[C@@H]12 .
a: 8.05

q: Please report the recorded pIC50 for O=S(=O)(CCO)CC[C@@H]1OCC[C@@]2(S(=O)(=O)c3ccc(Cl)cc3)c3c(F)ccc(F)c3OC[C@@H]12 .
a: 9.05

q: Please report the recorded pIC50 for O=S(=O)(CC[C@@H]1OCC[C@@]2(S(=O)(=O)c3ccc(Cl)cc3)c3c(F)ccc(F)c3OC[C@@H]12)C(F)(F)F .
a: 8.36

q: Please report the recorded pIC50 for O=S(=O)(CC[C@@H]1OCC[C@@]2(S(=O)(=O)c3ccc(Cl)cc3)c3c(F)ccc(F)c3OC[C@@H]12)CC(F)(F)F .
a: 8.19

----------
test: Half life in monkey at 10 mg/kg, po; format: ADME, organism-based, Macaca mulatta; design: dose 10 mg/kg, route oral; conditions: rhesus monkey, in vivo
measure.name: half-life
Answer format: number, then unit.

q: Please report the recorded half-life for CS(=O)(=O)CC[C@@H]1OCC[C@@]2(S(=O)(=O)c3ccc(C(F)(F)F)cc3)c3c(F)ccc(F)c3OC[C@@H]12 .
a: 17 h

----------
I'd appreciate it if you could supply pIC50 values for the items below.
target: Gamma-secretase; experiment: Inhibition of gamma secretase-mediated amyloid beta40 production in HEK293 cell membranes transfected with human APPSOW and APPLON mutant after 5 hrs by sandwich immunoassay; assay type: cell-based
Recall that pIC50 is obtained by taking minus log10 of the concentration measured in molar.

q: Please report the recorded pIC50 for O=S(=O)(CCO)CC[C@@H]1OCC[C@@]2(S(=O)(=O)c3ccc(Cl)cc3)c3c(F)ccc(F)c3OC[C@@H]12 .
a: 9.00

q: Please report the recorded pIC50 for CCS(=O)(=O)CC[C@@H]1OCC[C@@]2(S(=O)(=O)c3ccc(Cl)cc3)c3c(F)ccc(F)c3OC[C@@H]12 .
a: 8.52

q: Please report the recorded pIC50 for CS(=O)(=O)CC[C@@H]1OCC[C@@]2(S(=O)(=O)c3ccc(OCC(F)(F)F)cc3)c3c(F)ccc(F)c3OC[C@@H]12 .
a: 5.29

q: Please report the recorded pIC50 for CS(=O)(=O)CC[C@@H]1OCC[C@@]2(S(=O)(=O)c3cc(F)cc(F)c3)c3c(F)ccc(F)c3OC[C@@H]12 .
a: 6.60

q: Please report the recorded pIC50 for CS(=O)(=O)CC[C@@H]1OCC[C@@]2(S(=O)(=O)c3ccc(C#N)c(C#N)c3)c3c(F)ccc(F)c3OC[C@@H]12 .
a: 6.24

q: Please report the recorded pIC50 for O=S(=O)(CC[C@@H]1OCC[C@@]2(S(=O)(=O)c3ccc(Cl)cc3)c3c(F)ccc(F)c3OC[C@@H]12)C1CC1 .
a: 8.68

----------
I'd appreciate it if you could supply pIC50 values for the items below.
target: Gamma-secretase; test: Inhibition of gamma secretase-mediated amyloid beta42 production in HEK293 cells transfected with human APPSOW and APPLON after 5 hrs by sandwich immunoassay; type: cell-based
Recall that pIC50 is obtained by taking minus log10 of the concentration measured in molar.

q: Please report the recorded pIC50 for CS(=O)(=O)CC[C@@H]1OCC[C@@]2(S(=O)(=O)c3ccc(C(F)(F)F)cc3)c3c(F)ccc(F)c3OC[C@@H]12 .
a: 8.46

q: Please report the recorded pIC50 for CS(=O)(=O)CC[C@@H]1OCC[C@@]2(S(=O)(=O)c3ccc(F)c(F)c3)c3c(F)ccc(F)c3OC[C@@H]12 .
a: 8.85

q: Please report the recorded pIC50 for CC(C)S(=O)(=O)CC[C@@H]1OCC[C@@]2(S(=O)(=O)c3ccc(Cl)cc3)c3c(F)ccc(F)c3OC[C@@H]12 .
a: 8.52

q: Please report the recorded pIC50 for CS(=O)(=O)CC[C@@H]1OCC[C@@]2(S(=O)(=O)c3ccc(C#N)c(C#N)c3)c3c(F)ccc(F)c3OC[C@@H]12 .
a: 6.92

q: Please report the recorded pIC50 for CS(=O)(=O)CC[C@@H]1OCC[C@@]2(S(=O)(=O)c3ccc(Cl)cc3)c3c(F)ccc(F)c3OC[C@@H]12 .
a: 9.00

----------
assay: Cmax in dog at 10 mg/kg, po; assay type: ADME, organism-based, Canis lupus familiaris; set-up: dose 10 mg/kg, route oral; settings: in vivo
measure.name: Cmax (nM)
Your answer should be a plain number; it is taken to be in nM.

q: Please report the recorded Cmax for CS(=O)(=O)CC[C@@H]1OCC[C@@]2(S(=O)(=O)c3ccc(C(F)(F)F)cc3)c3c(F)ccc(F)c3OC[C@@H]12 .
a: 1500

----------
biological target: Gamma-secretase; test: Inhibition of gamma secretase-mediated amyloid beta40 production in HEK293 cells transfected with human APPSOW and APPLON after 5 hrs by sandwich immunoassay; assay type: cell-based
I'd appreciate it if you could supply pIC50 values for the items below.
Recall that pIC50 is obtained by taking minus log10 of the concentration measured in molar.

q: Please report the recorded pIC50 for CC(C)S(=O)(=O)CC[C@@H]1OCC[C@@]2(S(=O)(=O)c3ccc(Cl)cc3)c3c(F)ccc(F)c3OC[C@@H]12 .
a: 8.10

q: Please report the recorded pIC50 for CS(=O)(=O)CC[C@@H]1OCC[C@@]2(S(=O)(=O)c3ccc(C#N)cc3)c3c(F)ccc(F)c3OC[C@@H]12 .
a: 7.60

q: Please report the recorded pIC50 for O=S(=O)(CC[C@@H]1OCC[C@@]2(S(=O)(=O)c3ccc(Cl)cc3)c3c(F)ccc(F)c3OC[C@@H]12)c1ncn[nH]1 .
a: 8.05

q: Please report the recorded pIC50 for O=S(=O)(CC[C@@H]1OCC[C@@]2(S(=O)(=O)c3ccc(Cl)cc3)c3c(F)ccc(F)c3OC[C@@H]12)c1ncc[nH]1 .
a: 8.82

q: Please report the recorded pIC50 for O=C(O)CS(=O)(=O)CC[C@@H]1OCC[C@@]2(S(=O)(=O)c3ccc(Cl)cc3)c3c(F)ccc(F)c3OC[C@@H]12 .
a: 7.42

----------
target: Gamma-secretase; assay: Inhibition of gamma secretase-mediated amyloid beta40 production in HEK293 cell membranes transfected with human APPSOW and APPLON mutant after 5 hrs by sandwich immunoassay; assay type: cell-based
measure.name: log10(IC50) (log10 of the value in nM)
Use the decimal logarithm of IC50 (nM).

q: Please report the recorded log10(IC50) for O=S(=O)(CC[C@@H]1OCC[C@@]2(S(=O)(=O)c3ccc(Cl)cc3)c3c(F)ccc(F)c3OC[C@@H]12)c1ncc[nH]1 .
a: 0.15

q: Please report the recorded log10(IC50) for CS(=O)(=O)CC[C@@H]1OCC[C@@]2(S(=O)(=O)c3ccc(Br)cc3)c3c(F)ccc(F)c3OC[C@@H]12 .
a: 0.46

q: Please report the recorded log10(IC50) for CS(=O)(=O)CC[C@@H]1OCC[C@@]2(S(=O)(=O)c3ccc(C(F)(F)F)cc3)c3c(F)ccc(F)c3OC[C@@H]12 .
a: 1.18

q: Please report the recorded log10(IC50) for COc1ccc(S(=O)(=O)[C@@]23CCO[C@@H](CCS(C)(=O)=O)[C@@H]2COc2c(F)ccc(F)c23)cc1 .
a: 2.56

q: Please report the recorded log10(IC50) for CS(=O)(=O)CC[C@@H]1OCC[C@@]2(S(=O)(=O)c3ccc(F)c(F)c3)c3c(F)ccc(F)c3OC[C@@H]12 .
a: 1.49

q: Please report the recorded log10(IC50) for O=S(=O)(CCCO)CC[C@@H]1OCC[C@@]2(S(=O)(=O)c3ccc(Cl)cc3)c3c(F)ccc(F)c3OC[C@@H]12 .
a: 0.65

q: Please report the recorded log10(IC50) for O=C(O)CS(=O)(=O)CC[C@@H]1OCC[C@@]2(S(=O)(=O)c3ccc(Cl)cc3)c3c(F)ccc(F)c3OC[C@@H]12 .
a: 0.43

q: Please report the recorded log10(IC50) for CS(=O)(=O)CC[C@@H]1OCC[C@@]2(S(=O)(=O)c3ccc(C#N)cc3)c3c(F)ccc(F)c3OC[C@@H]12 .
a: 1.82

q: Please report the recorded log10(IC50) for CS(=O)(=O)CC[C@@H]1OCC[C@@]2(S(=O)(=O)c3ccc(Cl)cc3)c3c(F)ccc(F)c3OC[C@@H]12 .
a: 0.11

q: Please report the recorded log10(IC50) for O=S(=O)(CC[C@@H]1OCC[C@@]2(S(=O)(=O)c3ccc(Cl)cc3)c3c(F)ccc(F)c3OC[C@@H]12)C(F)(F)F .
a: 0.87
